# Test system: HepG2 cells
# assay: MTT cell viability assay, HepG2
# Assay type: cell-based, Human
# experimentalConditions: Homo sapiens, HepG2; MTT, 72 hours; read-out: IC50 values, HepG2
quantityName: IC50

The following molecules have reported results that may help.
                                   molecule  quantityname      result
0  CC(=O)O[C@@H]1[C@@H](O)[C@@H](O)[C@H](Oc2cc(O)c3c(c2)C(=O)c2cc(C)cc(O)c2C3=O)O[C@H]1C          IC50  > 20 µg/mL
1  Cc1cc(O)c2c(c1)C(=O)c1cc(O)cc(O)c1C2=O [S-1, 3-methyl-1,6,8-trihydroxyanthraquinone, reference compound]          IC50  12.8 µg/mL

Proceeding to the next molecule to report its IC50.
Query string: Specify IC50 for `Cc1cc(O)c2c(c1)C(=O)c1cc(O[C@@H]3O[C@@H](C)[C@H](O)[C@@H](O)[C@H]3O)cc(O)c1C2=O` and stop.
Result string: > 20 µg/mL

###

# Tested on: HeLa cells
# assay: MTT cell viability assay, HeLa
# Format: cell-based, Human
# experimentalConditions: Homo sapiens, HeLa; MTT, 72 hours; read-out: IC50 values, HeLa
# Protocol: The viability of cancer cells was evaluated by MTT assay. Briefly, cells were inoculated in 96-well culture plates at the density of 1×10^4/well with complete medium containing 10% fetal calf serum in a final volume of 0.2 mL. […] Cell survival was assessed by directly adding 22 μL of 5mg/mL MTT to 0.2 mL medium. […] Afterwards, the optical density of each well was detected at 570 nm wavelength by iMark microplate reader (Bio-rad,USA). […]
quantityName: IC50 (µg/mL)

molecule	testedOn	recordedNumber
COc1cc(C)cc2c1C(=O)c1c(OC)cc(O[C@@H]3O[C@@H](C)[C@H](O)[C@@H](OC(C)=O)[C@H]3OC(C)=O)cc1C2=O [S-9]	HeLa cells	4.93

[I] Cc1cc(O)c2c(c1)C(=O)c1cc(O)cc(O)c1C2=O [S-1, 3-methyl-1,6,8-trihydroxyanthraquinone, reference compound]
[II] CC(=O)O[C@@H]1[C@@H](OC(C)=O)[C@@H](O)[C@H](Oc2cc(O)c3c(c2)C(=O)c2cc(C)cc(O)c2C3=O)O[C@H]1C [S-5]
[III] CC(=O)O[C@@H]1[C@@H](O[C@@H]2O[C@@H](C)[C@H](O)[C@@H](OC(C)=O)[C@H]2OC(C)=O)[C@H](C)O[C@@H](Oc2cc(O)c3c(c2)C(=O)c2cc(C)cc(O)c2C3=O)[C@@H]1OC(C)=O [S-8]
Query string: Provide the items ranked by increasing IC50. State the ranking by listing the labels in the requested order.
Result string: III, II, I

###

# Test system: MDCK cells
# assay: MTT cell viability assay, MDCK
# Format: cell-based, Canine
# experimentalConditions: Canis lupus familiaris, 72 hours
quantityName: IC50

>>> print(df.to_string())
                             moleculesmiles  quantityname      result
0  CC(=O)O[C@@H]1[C@@H](O)[C@@H](OC(C)=O)[C@H](Oc2cc(O)c3c(c2)C(=O)c2cc(C)cc(O)c2C3=O)O[C@H]1C          IC50  > 20 µg/mL

Query string: Specify IC50 for `Cc1cc(O)c2c(c1)C(=O)c1cc(O[C@@H]3O[C@@H](C)[C@H](O)[C@@H](O)[C@H]3O)cc(O)c1C2=O` and stop.
Result string: > 20 µg/mL

Query string: Specify IC50 for `CC(=O)O[C@@H]1[C@@H](O)[C@H](C)O[C@@H](Oc2cc(O)c3c(c2)C(=O)c2cc(C)cc(O)c2C3=O)[C@@H]1OC(C)=O` and stop.
Result string: > 20 µg/mL
